The reader will find reported % A (azithromycin dihydrate, form A, of recovered azithromycin) values listed item by item below.
assay: Stability of non-dihydrate azithromycin in suspension (POS formulation II or bulk drug in water); SS-NMR quantification of form A; assay type: physicochemical; settings: Formulation II constituted with 18 mls water, 30° C., Day 10
Supply the numeric figure in %, leaving out any unit text.

Record excerpt, results attached:
CC[C@H]1OC(=O)[C@H](C)[C@@H](O[C@H]2C[C@@](C)(OC)[C@@H](O)[C@H](C)O2)[C@H](C)[C@@H](O[C@@H]2O[C@H](C)C[C@H](N(C)C)[C@H]2O)[C@](C)(O)C[C@@H](C)CN(C)[C@H](C)[C@@H](O)[C@]1(C)O [Form G, azithromycin sesquihydrate]
76
CCC1OC(=O)C(C)C(O[C@H]2C[C@@](C)(OC)[C@@H](O)C(C)O2)C(C)[C@@H](OC2OC(C)CC(N(C)C)[C@H]2O)[C@@](C)(O)C[C@@H](C)CN(C)[C@H](C)[C@@H](O)[C@]1(C)O (stereo partly shown) [Form J]
0
CCC1OC(=O)C(C)C(O[C@H]2C[C@@](C)(OC)[C@@H](O)C(C)O2)C(C)[C@@H](OC2OC(C)CC(N(C)C)[C@H]2O)[C@@](C)(O)C[C@@H](C)CN(C)[C@H](C)[C@@H](O)[C@]1(C)O (stereo partly shown) [Form F]
31

Below: the item to evaluate.
*Q* Look at this molecule and give its reported % A (azithromycin dihydrate, form A, of recovered azithromycin). CCC1OC(=O)C(C)C(O[C@H]2C[C@@](C)(OC)[C@@H](O)C(C)O2)C(C)[C@@H](OC2OC(C)CC(N(C)C)[C@H]2O)[C@@](C)(O)C[C@@H](C)CN(C)[C@H](C)[C@@H](O)[C@]1(C)O (stereo partly shown) [Form M]
*A* 62

* * *

assay: Stability of non-dihydrate azithromycin in suspension (POS formulation II or bulk drug in water); SS-NMR quantification of form A; format: physicochemical; conditions: Bulk Drug in 18 mls water, 30° C., Day 1
Reported metric: % A (azithromycin dihydrate, form A, of recovered azithromycin) (%)
The figure you give is taken to be in %; do not add the unit.

Sample records with % A (azithromycin dihydrate, form A, of recovered azithromycin):
CC[C@H]1OC(=O)[C@H](C)[C@@H](O[C@H]2C[C@@](C)(OC)[C@@H](O)[C@H](C)O2)[C@H](C)[C@@H](O[C@@H]2O[C@H](C)C[C@H](N(C)C)[C@H]2O)[C@](C)(O)C[C@@H](C)CN(C)[C@H](C)[C@@H](O)[C@]1(C)O [Form G, azithromycin sesquihydrate]
3
CCC1OC(=O)C(C)C(O[C@H]2C[C@@](C)(OC)[C@@H](O)C(C)O2)C(C)[C@@H](OC2OC(C)CC(N(C)C)[C@H]2O)[C@@](C)(O)C[C@@H](C)CN(C)[C@H](C)[C@@H](O)[C@]1(C)O (stereo partly shown) [Form F]
0
CCC1OC(=O)C(C)C(O[C@H]2C[C@@](C)(OC)[C@@H](O)C(C)O2)C(C)[C@@H](OC2OC(C)CC(N(C)C)[C@H]2O)[C@@](C)(O)C[C@@H](C)CN(C)[C@H](C)[C@@H](O)[C@]1(C)O (stereo partly shown) [Form M]
0

*Q* I would be grateful if you could share the reported % A (azithromycin dihydrate, form A, of recovered azithromycin) for CCC1OC(=O)C(C)C(O[C@H]2C[C@@](C)(OC)[C@@H](O)C(C)O2)C(C)[C@@H](OC2OC(C)CC(N(C)C)[C@H]2O)[C@@](C)(O)C[C@@H](C)CN(C)[C@H](C)[C@@H](O)[C@]1(C)O (stereo partly shown) [Form J] .
*A* 0

* * *

Measured % A (azithromycin dihydrate, form A, of recovered azithromycin) accompanies every entry in the list below.
experiment: Stability of non-dihydrate azithromycin in suspension (POS formulation II or bulk drug in water); SS-NMR quantification of form A; assay type: physicochemical; settings: Formulation II constituted with 18 mls water, 30° C., Day 1
// return numeric value only (unit: %, not printed)

Worked cases, % A (azithromycin dihydrate, form A, of recovered azithromycin) given:
CCC1OC(=O)C(C)C(O[C@H]2C[C@@](C)(OC)[C@@H](O)C(C)O2)C(C)[C@@H](OC2OC(C)CC(N(C)C)[C@H]2O)[C@@](C)(O)C[C@@H](C)CN(C)[C@H](C)[C@@H](O)[C@]1(C)O (stereo partly shown) [Form M]
28
CC[C@H]1OC(=O)[C@H](C)[C@@H](O[C@H]2C[C@@](C)(OC)[C@@H](O)[C@H](C)O2)[C@H](C)[C@@H](O[C@@H]2O[C@H](C)C[C@H](N(C)C)[C@H]2O)[C@](C)(O)C[C@@H](C)CN(C)[C@H](C)[C@@H](O)[C@]1(C)O [Form G, azithromycin sesquihydrate]
82
CCC1OC(=O)C(C)C(O[C@H]2C[C@@](C)(OC)[C@@H](O)C(C)O2)C(C)[C@@H](OC2OC(C)CC(N(C)C)[C@H]2O)[C@@](C)(O)C[C@@H](C)CN(C)[C@H](C)[C@@H](O)[C@]1(C)O (stereo partly shown) [Form F]
19

Field: next compound
*Q* Please give the measured % A (azithromycin dihydrate, form A, of recovered azithromycin) for this compound: CCC1OC(=O)C(C)C(O[C@H]2C[C@@](C)(OC)[C@@H](O)C(C)O2)C(C)[C@@H](OC2OC(C)CC(N(C)C)[C@H]2O)[C@@](C)(O)C[C@@H](C)CN(C)[C@H](C)[C@@H](O)[C@]1(C)O (stereo partly shown) [Form J]
*A* 0

* * *

assay: Stability of non-dihydrate azithromycin in suspension (POS formulation II or bulk drug in water); SS-NMR quantification of form A; type: physicochemical; conditions: Bulk Drug in 18 mls water, 5° C., Day 10
Recorded % A (azithromycin dihydrate, form A, of recovered azithromycin) by entry
The reply should be a number in %, with the unit left off.

Field: example entries. Status: answers known.
CCC1OC(=O)C(C)C(O[C@H]2C[C@@](C)(OC)[C@@H](O)C(C)O2)C(C)[C@@H](OC2OC(C)CC(N(C)C)[C@H]2O)[C@@](C)(O)C[C@@H](C)CN(C)[C@H](C)[C@@H](O)[C@]1(C)O (stereo partly shown) [Form F]
0
CC[C@H]1OC(=O)[C@H](C)[C@@H](O[C@H]2C[C@@](C)(OC)[C@@H](O)[C@H](C)O2)[C@H](C)[C@@H](O[C@@H]2O[C@H](C)C[C@H](N(C)C)[C@H]2O)[C@](C)(O)C[C@@H](C)CN(C)[C@H](C)[C@@H](O)[C@]1(C)O [Form G, azithromycin sesquihydrate]
12
CCC1OC(=O)C(C)C(O[C@H]2C[C@@](C)(OC)[C@@H](O)C(C)O2)C(C)[C@@H](OC2OC(C)CC(N(C)C)[C@H]2O)[C@@](C)(O)C[C@@H](C)CN(C)[C@H](C)[C@@H](O)[C@]1(C)O (stereo partly shown) [Form J]
0

*Q* # input compound: CCC1OC(=O)C(C)C(O[C@H]2C[C@@](C)(OC)[C@@H](O)C(C)O2)C(C)[C@@H](OC2OC(C)CC(N(C)C)[C@H]2O)[C@@](C)(O)C[C@@H](C)CN(C)[C@H](C)[C@@H](O)[C@]1(C)O (stereo partly shown) [Form M] ; wanted: its % A (azithromycin dihydrate, form A, of recovered azithromycin)
*A* 0

* * *

experiment: Stability of non-dihydrate azithromycin in suspension (POS formulation II or bulk drug in water); SS-NMR quantification of form A; format: physicochemical; details: Formulation II constituted with 18 mls water, 5° C., Day 1
Listed next: entries and their corresponding % A (azithromycin dihydrate, form A, of recovered azithromycin).

These solved cases illustrate the format of a correct answer.
CCC1OC(=O)C(C)C(O[C@H]2C[C@@](C)(OC)[C@@H](O)C(C)O2)C(C)[C@@H](OC2OC(C)CC(N(C)C)[C@H]2O)[C@@](C)(O)C[C@@H](C)CN(C)[C@H](C)[C@@H](O)[C@]1(C)O (stereo partly shown) [Form M]
23%
CCC1OC(=O)C(C)C(O[C@H]2C[C@@](C)(OC)[C@@H](O)C(C)O2)C(C)[C@@H](OC2OC(C)CC(N(C)C)[C@H]2O)[C@@](C)(O)C[C@@H](C)CN(C)[C@H](C)[C@@H](O)[C@]1(C)O (stereo partly shown) [Form F]
6%
CCC1OC(=O)C(C)C(O[C@H]2C[C@@](C)(OC)[C@@H](O)C(C)O2)C(C)[C@@H](OC2OC(C)CC(N(C)C)[C@H]2O)[C@@](C)(O)C[C@@H](C)CN(C)[C@H](C)[C@@H](O)[C@]1(C)O (stereo partly shown) [Form J]
0%

*Q* I am curious: what % A (azithromycin dihydrate, form A, of recovered azithromycin) value has been reported for CC[C@H]1OC(=O)[C@H](C)[C@@H](O[C@H]2C[C@@](C)(OC)[C@@H](O)[C@H](C)O2)[C@H](C)[C@@H](O[C@@H]2O[C@H](C)C[C@H](N(C)C)[C@H]2O)[C@](C)(O)C[C@@H](C)CN(C)[C@H](C)[C@@H](O)[C@]1(C)O [Form G, azithromycin sesquihydrate] ?
*A* 72%

Data credit: patent US20100048498A1
